# PROTOCOL_NOTES: chemical genetic growth profiling, strain panel (AID 1159580);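 also: tested at 20 µM; growth read once vehicle control cultures reached saturation at 30 °C; 1 = growth at the plate median or of vehicle wells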
# SETTINGS: S. cerevisiae deletion strains, growth OD, locus YLR058C, strain SHM2, stronger effect = lower value
The campaign covered roughly 5,500 compounds. About 2,000 (36%) were called active. Inconclusive results (about 18%) are left out. Some of the results follow.
QUANTITY_NAME: normalized growth
Enter the number alone.

`CC(=O)OCC1=C(C(=O)O)N2C(=O)[C@@H](NC(=O)Cc3cccs3)[C@H]2SC1` yielded normalized growth of 0.978

The reported normalized growth of the molecule CC(=O)[C@@]1(O)CCC2C3C[C@H](C)C4=CC(=O)C=CC4(C)[C@@]3(F)[C@@H](O)C[C@@]21C (stereo not given in full) was 1.01

// `COc1ccc(-c2cc(=O)c3c(O)cc(O[C@H]4O[C@H](CO[C@@H]5O[C@@H](C)[C@H](O)[C@@H](O)[C@H]5O)[C@@H](O)[C@H](O)[C@H]4O)cc3o2)cc1` : normalized growth value = 1.01

Entry `COc1cc2occc2c2oc(=O)ccc12` , normalized growth reported as 0.976

The reported normalized growth of the molecule `NC(=O)CN1CCCC1=O` was 1.01

get_value(item= `CCN1C[C@]2(C)CC[C@H](OC)[C@]34C2[C@H](O)[C@]2(OCO[C@@]25C[C@H](OC)[C@H]2C[C@]3(O)C5[C@H]2O)C14` , readout=normalized growth) returns 1.01

// recorded normalized growth for `COc1ccc2ccc(=O)oc2c1` : 1.02

---

# PROTOCOL_NOTES: chemical genetic growth profiling, strain panel (AID 1159580)
# SETTINGS: S. cerevisiae deletion strains, growth OD, locus YBR279W, strain paf1, stronger effect = lower value
The campaign covered roughly 5,500 compounds. About 2,000 (36%) were called active. About 18% were inconclusive and are not listed. The list shows a part of the results.
QUANTITY_NAME: normalized growth
Reply with the value as a number alone.

>  <COMPOUND>
COc1ccc(-c2oc3c(CC=C(C)C)c(O[C@@H]4O[C@H](CO)[C@@H](O)[C@H](O)[C@H]4O)cc(O)c3c(=O)c2O[C@@H]2O[C@@H](C)[C@H](O)[C@@H](O)[C@H]2O)cc1

>  <normalized growth>
1.03

$$$$
>  <COMPOUND>
COc1ccc2ccc(=O)oc2c1

>  <normalized growth>
1

$$$$
>  <COMPOUND>
CN[C@@H]1C(O)[C@@H](O[C@@H]2[C@@H](O)[C@H](O[C@H]3OC(CN)=CC[C@H]3N)[C@@H](N)C[C@H]2N)OC[C@]1(C)O (some centres undefined)

>  <normalized growth>
1

$$$$

normalized growth recorded for this compound, `C=C[C@H]1CN2CC[C@H]1C[C@@H]2[C@@H](OC(=O)OCC)c1ccnc2ccc(OC)cc12` , is 0.997

---

# PROTOCOL_NOTES: chemical genetic growth profiling, strain panel (AID 1159580)
# SETTINGS: S. cerevisiae deletion strains, growth OD, locus YNR052C, strain pop2
About 2,000 (36%) of roughly 5,500 compounds were called active. Another 18% or so got no clear call; they are omitted. No stated cut-off is given here; in the data, active means normalized growth mostly below about 0.91 (no sharp cut-off); inconclusive means no clear call, values can overlap the other calls; inactive means mostly above about 0.92. Some of the results follow.
Your answer must be one of the following: label 1 = active, label 0 = inactive

>  <MOLECULE>
COc1cc(OC)c2ccc(=O)oc2c1

>  <CLASSIFICATION>
label 0

$$$$
>  <MOLECULE>
CCCCCCC(C)OC(=O)COc1ccc(Cl)cc1Cl (stereo unspecified)

>  <CLASSIFICATION>
label 0

$$$$
>  <MOLECULE>
COc1c(C(C)C)oc2cc3oc(=O)ccc3cc12

>  <CLASSIFICATION>
label 1

$$$$
>  <MOLECULE>
COc1c2ccoc2cc2oc(=O)ccc12

>  <CLASSIFICATION>
label 1

$$$$

Dear colleague, could you share the recorded outcome for `Cc1cc(OC(=O)c2c(C)cc(O)cc2O)cc(O)c1C(=O)O` when you have a moment? label 0

How was CCCC(C)(COC(N)=O)COC(=O)NC(C)C (stereo unspecified) classified in this test? label 0

---

Here the recorded normalized growth is given for each entry.
# PROTOCOL_NOTES: chemical genetic growth profiling, strain panel (AID 1159580)
# SETTINGS: S. cerevisiae deletion strains, growth OD, locus YNR052C, strain pop2, stronger effect = lower value
Out of some 5,500 compounds screened, about 2,000 (36%) were called active. Another 18% or so got no clear call; they are omitted. The list shows a part of the results.
Enter the number alone.

Worked set:
>  <MOLECULE>
Oc1cc2c(cc1O)C1c3ccc(O)c(O)c3OCC1(O)C2 (centres undefined)

>  <normalized growth>
0.954

$$$$
>  <MOLECULE>
COC(=O)[C@@]1(C)CCC[C@]2(C)c3ccc(O)c(C(C)C)c3CCC12 (some centres undefined)

>  <normalized growth>
0.629

$$$$
>  <MOLECULE>
C[C@@H]1O[C@@H](OC[C@H]2OC(Oc3c(-c4ccc(O)c(O)c4)oc4cc(O)cc(O)c4c3=O)[C@H](O)[C@@H](O)[C@@H]2O)[C@H](O)[C@H](O)[C@H]1O (some centres undefined)

>  <normalized growth>
1.01

$$$$
>  <MOLECULE>
COc1cc(OC)c2c(=O)c(OC)c(-c3ccc(OC)c(OC)c3)oc2c1

>  <normalized growth>
0.993

$$$$
>  <MOLECULE>
O=c1c(O)c(-c2ccc(O)c(O)c2)oc2cc(O)cc(O)c12

>  <normalized growth>
1

$$$$

Note to self: normalized growth recorded for `COc1cc(OC)c2c(=O)c(O)c(-c3ccc(OC)c(OC)c3)oc2c1` was 0.761

So for C[C@]12CCC3c4ccc(OS(=O)(=O)O)cc4CCC3C1CC[C@H]2O (some centres undefined) , the logged normalized growth turned out to be 0.982

Measured normalized growth, CC(C)N(CCC(C(N)=O)(c1ccccc1)c1ccccn1)C(C)C (centres undefined) : 0.997

Per the records, this molecule ( `O=c1cc(-c2ccc(O)cc2)oc2cc(O[C@@H]3O[C@H](CO)[C@@H](O)[C@H](O)[C@H]3O)cc(O)c12` ) has normalized growth equal to 0.997

---

# PROTOCOL_NOTES: chemical genetic growth profiling, strain panel (AID 1159580);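 also: tested at 20 µM; growth read once vehicle control cultures reached saturation at 30 °C; 1 = growth at the plate median or of vehicle wells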
# SETTINGS: S. cerevisiae deletion strains, growth OD, locus YJL129C, strain trk1, stronger effect = lower value
Screen size: about 5,500 compounds; about 2,000 (36%) were called active. Inconclusive results (about 18%) are left out. The list shows a part of the results.
Simple rule here: normalized growth less than 1 is MET, otherwise NOT MET.

Could you please tell me whether normalized growth recorded for `CC[n+]1c(-c2ccccc2)c2cc(N)ccc2c2ccc(N)cc21` is less than 1? NOT MET

Determine if CC(=O)O[C@@H]1CC2C(C)(C)C(=O)C=C[C@]2(C)C2CC[C@@]3(C)[C@H](c4ccoc4)OC(=O)[C@H]4O[C@]43[C@@]21C (stereo not given in full) shows normalized growth strictly lower than 1. MET

---

# PROTOCOL_NOTES: chemical genetic growth profiling, strain panel (AID 1159580);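 also: tested at 20 µM; growth read once vehicle control cultures reached saturation at 30 °C; 1 = growth at the plate median or of vehicle wells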
# SETTINGS: S. cerevisiae deletion strains, growth OD, locus YLR268W, strain sec22
The whole screen tested about 5,500 compounds, of which about 2,000 (36%) were called active. Not shown: some 18% with an inconclusive outcome. Cut-off read from the data, not from the text of the source: active = normalized growth mostly below about 0.91 (no sharp cut-off); inconclusive = no clear call, values can overlap the other calls; inactive = mostly above about 0.92. This is one part of the list.
Response enum: true (active), false (inactive)

Here are 3 compounds together with their reported answers.
>  <COMPOUND>
CC/C(=C(/CC)c1ccc(O)cc1)c1ccc(O)cc1

>  <CLASSIFICATION>
false

$$$$
>  <COMPOUND>
CNC(C)C(O)c1ccccc1 (configuration not stated)

>  <CLASSIFICATION>
false

$$$$
>  <COMPOUND>
O=C(O[C@@H]1Cc2c(O)cc(O)cc2O[C@@H]1c1cc(O)c(=O)c2c(O)c(O)cc([C@H]3Oc4cc(O)cc(O)c4C[C@H]3O)c2c1)c1cc(O)c(O)c(O)c1

>  <CLASSIFICATION>
true

$$$$

State the result this test recorded for CC(C)(C)NCC(O)c1cc(O)cc(O)c1 (configuration not stated) . false

State the result this test recorded for NC(CSCSCC(N)C(=O)O)C(=O)O (configuration not stated) . false

Would you mind telling me which call this test gave `CCOCN(C(=O)CCl)c1c(C)cccc1CC` ? false

Could you check what this test reported for CC(C1OC(C)(C)C(O)C1O)[C@@H]1CC[C@]2(C)C3=CCC4C(C)(C)C(=O)CC[C@]4(C)C3CC[C@@]12C (some centres not stated) ? false

---

Quick reference for normalized growth among some molecules
# PROTOCOL_NOTES: chemical genetic growth profiling, strain panel (AID 1159580);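 also: tested at 20 µM; growth read once vehicle control cultures reached saturation at 30 °C; 1 = growth at the plate median or of vehicle wells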
# SETTINGS: S. cerevisiae deletion strains, growth OD, locus YHR094C, strain hxt1, stronger effect = lower value
The campaign covered roughly 5,500 compounds. About 2,000 (36%) were called active. Another 18% or so got no clear call; they are omitted. Some of the results follow.
// return just the number, without any unit appended

Noted for `COC(=O)c1c(C)cc(OC)cc1O` : its normalized growth reads 0.99
